test: Cmax in fed Beagle dog at 1.0 mg/kg, po
Assay type: ADME, organism-based, Canis lupus familiaris
Parameters: dose 1 mg/kg, route oral
assaySetup: in vivo

[
  {
    "smilesString": "CCC(CC)Nc1cc(C)nc(Oc2c(C)cc(C)cc2C)c1C",
    "unit": "ng/mL",
    "Cmax": 131
  }
]

These data points were gathered from ChEMBL document CHEMBL1141603.
